Source of measurements: ChEMBL document CHEMBL5331094

Task for the reader: assign each of the following molecules its reported Activity.
test system: Bromodomain-containing protein 9 (Homo sapiens) (UniProt Q9H8M2)
Sequence (Q9H8M2 whole entry, the tested form may be a part): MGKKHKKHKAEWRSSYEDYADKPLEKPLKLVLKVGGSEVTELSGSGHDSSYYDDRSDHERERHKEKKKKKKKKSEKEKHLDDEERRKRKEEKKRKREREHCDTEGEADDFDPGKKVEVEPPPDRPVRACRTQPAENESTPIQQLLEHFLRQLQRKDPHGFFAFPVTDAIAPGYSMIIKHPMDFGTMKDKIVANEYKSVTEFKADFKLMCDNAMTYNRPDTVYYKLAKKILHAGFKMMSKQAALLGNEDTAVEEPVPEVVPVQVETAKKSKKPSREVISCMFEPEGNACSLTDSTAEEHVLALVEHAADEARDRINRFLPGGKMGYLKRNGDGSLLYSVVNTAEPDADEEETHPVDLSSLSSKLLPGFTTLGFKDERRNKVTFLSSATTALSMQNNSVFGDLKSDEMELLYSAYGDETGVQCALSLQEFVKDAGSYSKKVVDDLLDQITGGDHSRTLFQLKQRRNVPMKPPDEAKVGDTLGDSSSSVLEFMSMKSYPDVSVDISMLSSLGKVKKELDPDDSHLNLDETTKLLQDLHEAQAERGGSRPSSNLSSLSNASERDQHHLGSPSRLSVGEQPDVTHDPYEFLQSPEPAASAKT
test method notes: Binding affinity of GST-tagged BRD9 domain (unknown origin) to histone H4Ac (1 to 21 residues) assessed as residual binding at 10 uM by alphascreen analysis relative to control
Answer with a number only, understood to be in %.

Record summary for "CCc1n[nH]c(=O)n1-c1ccc(F)c(C)c1" : reported Activity = 94.9

Record summary for "CCc1n[nH]c(=O)n1-c1ccc(Cl)c(F)c1" : reported Activity = 91.8

Record summary for "COc1ccc(-n2c(C)nnc2O)cc1OC" : reported Activity = 73.6

Record summary for "CCc1ccc(-n2c(CC)n[nH]c2=O)cc1" : reported Activity = 97.1

Record summary for "CCc1n[nH]c(=O)n1-c1ccc(OC)c(OC)c1" : reported Activity = 96.9

Record summary for "CCn1nc(C)n(-c2ccc(F)c(Cl)c2)c1=O" : reported Activity = 41.2

Record summary for "CCn1nc(C)n(-c2ccc(OC)c(OC)c2)c1=O" : reported Activity = 50.8

Record summary for "CCn1nc(C)n(-c2ccc3c(c2)OCO3)c1=O" : reported Activity = 35.6

Record summary for "CCc1nn(C)c(=O)n1-c1ccc2c(c1)OCO2" : reported Activity = 21.1

Record summary for "CCc1nn(C)c(=O)n1C1CCCCC1" : reported Activity = 64.3

Record summary for "CCc1nn(C)c(=O)n1-c1cccc(C(F)(F)F)c1" : reported Activity = 76.5
